# ASSAY TARGET: T1, human Gal3 (Homo sapiens, UniProt P17931)
# T1 construct: His; purchased AcroBio GA3-H5129
# T1 sequence (P17931 whole entry): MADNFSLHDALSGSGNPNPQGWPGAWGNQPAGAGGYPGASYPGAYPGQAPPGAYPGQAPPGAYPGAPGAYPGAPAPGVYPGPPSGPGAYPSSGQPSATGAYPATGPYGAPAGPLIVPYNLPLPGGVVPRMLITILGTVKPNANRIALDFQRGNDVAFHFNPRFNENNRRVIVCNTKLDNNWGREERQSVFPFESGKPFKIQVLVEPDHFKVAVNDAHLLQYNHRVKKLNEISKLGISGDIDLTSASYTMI
# EXPERIMENT SUMMARY: Antibody binning assays (competition for binding to Gal3)
# RUN PARAMETERS: binning per Examples 3 and 18
VALUE TYPE: epitope bin (competitive binding to Gal3)

- MOLECULE: "15F10.2D6: anti-Gal3 monoclonal antibody (antibody, V domains shown) VH: EVQLVESGGGLVKPGGSLKLSCAASGFAFSSYAMSWVRQTPEKRLEWVATISDGGVYTYYTDHVKGRFTISRDNAEDNLYLQMSHLKSEDTAMYYCVRDGGYWGQGTTLTVSS VL: DVLMTQTPLSLPVSLGDQASISCRSSQSIVHNNGNTYLEWYLQKPGQSPKLLIYKVSNRFSGVPDRFSGSGSGTDFTLKISRVEAEDLGVYYCFQGSHVPLTFGGGTKLELK"
  VALUE REPORTED: "bin 8"
- MOLECULE: "2D10.2B2: anti-Gal3 monoclonal antibody (antibody, V domains shown) VH: QVQLQQSGPELVKPGASVKISCKASGYTFTDYYINWVKQRPGQGLEWIGWIYPGSNDTKYNEKFKGKATLTVDTSSSTAYMQLGSLTSEDSAVYFCANYFGCSGWFFDVWGTGTTVTVSS VL: DIVMTQAAFSNPVTLGTSASISCRSSKSLLHSDGITYLYWYLQRPGQSPQLLIYRMSNLASGVPDRFSGSGSGTDFTLRISRVEAEDVGVYYCAQMIEFPLTFGAGTILELK"
  VALUE REPORTED: "bin 3"
- MOLECULE: "4A11.2B5: anti-Gal3 monoclonal antibody (antibody, V domains shown) VH: QVQLQQSGPELVKPGASVKISCKASGYSFTNYYIHWVKQRPGQGLEWIGWIYPGSGNTNYNEKFKGKATLTADTSSSTTNMQLSSLTSEDSAVYYCSTAPGGFDVWGSGTTVTVSS VL: DIVMTQAAFSNPVTLGTSASISCRSSKSLLHSDGITYLYWYLQRPGQSPQLLIYRMSNLASGVPDRFSGSGSGTDFTLRISRVEAEDVGVYYCAQMLEFPLTFGAGTKLELK"
  VALUE REPORTED: "bin 3"
